- target.under.test: 6×HIS-tankyrase1 (1091-1325) (Homo sapiens (Human))
- Sequence (O95271 1091-1325): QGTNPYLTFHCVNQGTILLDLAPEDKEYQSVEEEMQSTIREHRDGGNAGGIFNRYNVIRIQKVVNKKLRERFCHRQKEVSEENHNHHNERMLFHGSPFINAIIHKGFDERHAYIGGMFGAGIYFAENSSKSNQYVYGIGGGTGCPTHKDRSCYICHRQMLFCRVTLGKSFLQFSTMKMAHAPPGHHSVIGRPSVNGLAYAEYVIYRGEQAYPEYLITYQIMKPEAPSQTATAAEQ
- test.summary: Tankyrase 1 biochemical assay (AlphaLisa, PARsylation)
- run.parameters: 400 nM NAD, 60 minutes at RT; read-out: TNKS1 IC50
Binarize IC50 at 0.3 nM; below is True, at or above is False.

Q) Regarding O=C(CSc1nc2ccccc2c(=O)[nH]1)N1CCC(c2nnc(-c3ccccc3)o2)CC1 [Example 89] , kindly confirm whether its IC50 is beneath 0.3 nM.
A) False

Q) Regarding O=C(CCCc1nc2ccccc2c(=O)[nH]1)N1CCC(c2nnc(-c3cccnc3)o2)CC1 [Example 13] , kindly confirm whether its IC50 is beneath 0.3 nM.
A) False

Q) Regarding COc1ccc(-c2nnc([C@H]3CC[C@H](NC(=O)CCSc4nc5ccccc5c(=O)[nH]4)CC3)o2)cc1 [Example 121] , kindly confirm whether its IC50 is beneath 0.3 nM.
A) True

Q) Regarding O=C(CCCc1nc2ccccc2c(=O)[nH]1)N[C@H]1CC[C@H](c2nnc(-c3ccc(F)c(Cl)c3)o2)CC1 [Example 35, 2,2,2-trifluoroacetate] , kindly confirm whether its IC50 is beneath 0.3 nM.
A) True

Q) Regarding O=C(CCCc1nc2ccccc2c(=O)[nH]1)N1CCC(n2c(=O)[nH]c3ncccc32)CC1 [Example 47, trifluoroacetic acid] , kindly confirm whether its IC50 is beneath 0.3 nM.
A) False

Q) Regarding N#Cc1cccc(O[C@H]2CC[C@H](NC(=O)CCCc3nc4ccccc4c(=O)[nH]3)CC2)c1 [Example 58] , kindly confirm whether its IC50 is beneath 0.3 nM.
A) False

Q) Regarding O=C(CCSc1nc2ccccc2c(=O)[nH]1)N[C@H]1C[C@H](c2nnc(-c3ccccc3)o2)C1 [Example 40] , kindly confirm whether its IC50 is beneath 0.3 nM.
A) True

---

- target.under.test: PARP2 (Homo sapiens (Human), UniProt Q9UGN5)
- Sequence (Q9UGN5 whole entry): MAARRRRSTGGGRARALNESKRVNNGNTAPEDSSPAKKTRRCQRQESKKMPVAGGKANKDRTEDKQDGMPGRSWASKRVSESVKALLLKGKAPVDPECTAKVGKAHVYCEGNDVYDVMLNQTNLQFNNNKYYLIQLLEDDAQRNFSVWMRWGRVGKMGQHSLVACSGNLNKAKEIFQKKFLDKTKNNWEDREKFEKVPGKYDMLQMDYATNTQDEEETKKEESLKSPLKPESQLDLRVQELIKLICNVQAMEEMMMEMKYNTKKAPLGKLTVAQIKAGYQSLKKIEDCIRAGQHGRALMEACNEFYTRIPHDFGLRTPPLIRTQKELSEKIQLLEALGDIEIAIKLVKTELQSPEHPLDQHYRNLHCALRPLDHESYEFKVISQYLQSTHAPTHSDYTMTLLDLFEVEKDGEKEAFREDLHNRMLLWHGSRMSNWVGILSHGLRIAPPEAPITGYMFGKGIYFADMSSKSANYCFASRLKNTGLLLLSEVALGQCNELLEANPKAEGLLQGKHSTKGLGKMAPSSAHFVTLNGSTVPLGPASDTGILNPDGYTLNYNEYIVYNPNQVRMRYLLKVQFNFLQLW
pIC50 overview
Remember the convention: pIC50 equals -log10 of concentration in molar.

Below are worked cases with known answers.
O=C(CCCc1nc2ccccc2c(=O)[nH]1)N1CCC(c2nnc(-c3ccccc3Cl)o2)CC1 :: 6.25
N#Cc1ccccc1O[C@H]1CC[C@H](NC(=O)CCCc2nc3ccccc3c(=O)[nH]2)CC1 :: 6.04
N#Cc1ccc2c(c1)[nH]c(=O)n2[C@H]1CC[C@H](NC(=O)CCSc2nc3ccccc3c(=O)[nH]2)CC1 :: 5.93

Q) Entry `O=C(CCCSc1nc2ccccc2c(=O)[nH]1)N1CCC(c2nnc(-c3ccccc3)o2)CC1` , system PARP2 (Homo sapiens (Human), UniProt Q9UGN5): what pIC50 was measured?
A) 5.33

---

- target.under.test: 6×HIS-tankyrase 2 (946-1162) (Homo sapiens (Human), UniProt Q9H2K2)
- Sequence (Q9H2K2 946-1162): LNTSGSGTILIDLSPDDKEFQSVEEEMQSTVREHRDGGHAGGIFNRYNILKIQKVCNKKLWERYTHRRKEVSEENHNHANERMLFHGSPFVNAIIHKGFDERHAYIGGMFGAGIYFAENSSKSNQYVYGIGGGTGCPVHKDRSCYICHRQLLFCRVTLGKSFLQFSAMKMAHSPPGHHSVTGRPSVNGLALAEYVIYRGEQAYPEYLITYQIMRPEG
measured.quantity: pIC50
Remember the convention: pIC50 equals -log10 of concentration in molar.

COc1cccc(-c2nnc([C@H]3CC[C@H](NC(=O)CCSc4nc5ccccc5c(=O)[nH]4)CC3)o2)c1 [Example 120] :: 8.27
COc1ccc(-c2nnc([C@H]3CC[C@H](NC(=O)CCCc4nc5ccccc5c(=O)[nH]4)CC3)o2)cc1 [Example 30] :: 9.72
O=C(CCCc1nc2ccccc2c(=O)[nH]1)N1CCC(c2nnc(-c3ccc(F)cc3)o2)CC1 [Example 6] :: 8.59
O=C(CSc1nc2ccccc2c(=O)[nH]1)N1CCC(c2nnc(-c3ccccc3)o2)CC1 [Example 89] :: 8.20

Q) Entry O=C(CCCc1nc2ccccc2c(=O)[nH]1)N[C@H]1CC[C@H](Oc2cccnc2)CC1 [Example 59] , system 6×HIS-tankyrase 2 (946-1162) (Homo sapiens (Human), UniProt Q9H2K2): what pIC50 was measured?
A) 8.62

Q) Entry O=C(CCc1nc2ccccc2c(=O)[nH]1)N[C@H]1CC[C@H](c2nnc(-c3ccccn3)o2)CC1 [Example 131] , system 6×HIS-tankyrase 2 (946-1162) (Homo sapiens (Human), UniProt Q9H2K2): what pIC50 was measured?
A) 6.73

Q) Entry Cc1ccc2[nH]c(=O)n(C3CCN(C(=O)CCCc4nc5ccccc5c(=O)[nH]4)CC3)c2c1 [Example 7] , system 6×HIS-tankyrase 2 (946-1162) (Homo sapiens (Human), UniProt Q9H2K2): what pIC50 was measured?
A) 8.47

Q) Entry O=C(CCc1nc2ccccc2c(=O)[nH]1)N[C@H]1CC[C@H](c2nnc(-c3cccnc3)o2)CC1 [Example 136] , system 6×HIS-tankyrase 2 (946-1162) (Homo sapiens (Human), UniProt Q9H2K2): what pIC50 was measured?
A) 7.49

Q) Entry O=C(CCCc1nc2ccccc2c(=O)[nH]1)N[C@H]1CC[C@H](c2nnc(-c3cccc(F)c3)o2)CC1 [Example 31] , system 6×HIS-tankyrase 2 (946-1162) (Homo sapiens (Human), UniProt Q9H2K2): what pIC50 was measured?
A) 9.63

Q) Entry N#Cc1ccc2c(c1)[nH]c(=O)n2C1CCN(C(=O)CCCc2nc3ccccc3c(=O)[nH]2)CC1 [Example 68] , system 6×HIS-tankyrase 2 (946-1162) (Homo sapiens (Human), UniProt Q9H2K2): what pIC50 was measured?
A) 9.53

Q) Entry O=C(CCCc1nc2ccccc2c(=O)[nH]1)N[C@H]1CC[C@H](Oc2ccccn2)CC1 [Example 56] , system 6×HIS-tankyrase 2 (946-1162) (Homo sapiens (Human), UniProt Q9H2K2): what pIC50 was measured?
A) 9.14

Q) Entry O=C(CCCc1nc2ccccc2c(=O)[nH]1)N1CCC(n2c(=O)oc3cc(F)ccc32)CC1 [Example 53, trifluoroacetic acid] , system 6×HIS-tankyrase 2 (946-1162) (Homo sapiens (Human), UniProt Q9H2K2): what pIC50 was measured?
A) 9.23

Q) Entry O=C(CCc1nc2ccccc2c(=O)[nH]1)N1CCC(c2nnc(-c3ccccc3)o2)CC1 [Example 98] , system 6×HIS-tankyrase 2 (946-1162) (Homo sapiens (Human), UniProt Q9H2K2): what pIC50 was measured?
A) 6.70

Q) Entry O=C(CCc1nc2ccccc2c(=O)[nH]1)N[C@H]1CC[C@H](c2nnc(-c3ccccc3Cl)o2)CC1 [Example 128] , system 6×HIS-tankyrase 2 (946-1162) (Homo sapiens (Human), UniProt Q9H2K2): what pIC50 was measured?
A) 7.09

Q) Entry N#Cc1ccc(-c2nnc([C@H]3CC[C@H](NC(=O)CCc4nc5ccccc5c(=O)[nH]4)CC3)o2)cc1 [Example 134] , system 6×HIS-tankyrase 2 (946-1162) (Homo sapiens (Human), UniProt Q9H2K2): what pIC50 was measured?
A) 7.85

Q) Entry O=C(CCCc1nc2ccccc2c(=O)[nH]1)N1CCC(N2C(=O)Cc3ccccc32)CC1 [Example 43] , system 6×HIS-tankyrase 2 (946-1162) (Homo sapiens (Human), UniProt Q9H2K2): what pIC50 was measured?
A) 7.78

Q) Entry O=C(CCCc1nc2ccccc2c(=O)[nH]1)N1CCC(c2nnc(COc3ccc(Cl)cc3)o2)CC1 [Example 17] , system 6×HIS-tankyrase 2 (946-1162) (Homo sapiens (Human), UniProt Q9H2K2): what pIC50 was measured?
A) 6.82
